Catalogue of log10(IC50) readings, one per entry.
test.system: 5-hydroxytryptamine receptor 3A (Homo sapiens, UniProt P46098)
Sequence (P46098 whole entry): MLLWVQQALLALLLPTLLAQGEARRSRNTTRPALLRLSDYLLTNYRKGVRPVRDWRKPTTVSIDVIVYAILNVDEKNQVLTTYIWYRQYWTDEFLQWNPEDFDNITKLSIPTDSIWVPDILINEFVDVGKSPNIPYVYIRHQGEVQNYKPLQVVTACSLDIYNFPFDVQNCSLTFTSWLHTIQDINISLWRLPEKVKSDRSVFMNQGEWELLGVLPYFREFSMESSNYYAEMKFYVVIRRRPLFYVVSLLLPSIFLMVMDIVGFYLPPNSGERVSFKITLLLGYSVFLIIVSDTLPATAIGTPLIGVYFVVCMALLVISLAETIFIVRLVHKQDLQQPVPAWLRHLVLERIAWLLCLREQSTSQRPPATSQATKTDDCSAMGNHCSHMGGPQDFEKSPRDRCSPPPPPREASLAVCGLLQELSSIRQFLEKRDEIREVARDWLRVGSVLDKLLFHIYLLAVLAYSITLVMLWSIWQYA
method.notes: Displacement of [3H]granisetron from human recombinant 5-HT3 receptor expressed in HEK293 cells
# log10 transformed; quantity=IC50; unit=nM

Check out these entries, answers already filled in.
COc1cc(N)c(Cl)cc1C(=O)N[C@H]1CCN(C[C@@H]2CCCC[C@@]2(O)c2cccc(O)c2)C[C@H]1OC    1.26
COc1cccc([C@]2(O)CCCC[C@H]2CN(C)CCNC(=O)c2cc(Cl)c(N)cc2OC)c1    3.69
COc1cc(N)c(Cl)cc1C(=O)NCCN(C)C[C@@H]1CCCC[C@@]1(O)c1cccc(O)c1    3.40

`COc1cccc([C@@]2(O)CCCC[C@@H]2CN(C)CCNC(=O)c2cc(Cl)c(N)cc2OC)c1` yielded log10(IC50) of 3.54

`COc1cccc([C@]2(O)CCCC[C@H]2CN2CC[C@@H](NC(=O)c3cc(Cl)c(N)cc3OC)[C@@H](OC)C2)c1` yielded log10(IC50) of 2.20

`COc1cc(N)c(Cl)cc1C(=O)N[C@@H]1CCN(C[C@H]2CCCC[C@]2(O)c2cccc(O)c2)C[C@@H]1OC` yielded log10(IC50) of 3.20

`COc1cccc([C@@]2(O)CCCC[C@@H]2CN2CC[C@H](NC(=O)c3cc(Cl)c(N)cc3OC)[C@H](OC)C2)c1` yielded log10(IC50) of 2.90

`COc1cc(N)c(Cl)cc1C(=O)N[C@H]1CCN(C[C@H]2CCCC[C@]2(O)c2cccc(O)c2)C[C@H]1OC` yielded log10(IC50) of 2.59

COc1cc(N)c(Cl)cc1C(=O)NC1CCNCC1OC (racemic) [NORCISAPRIDE] yielded log10(IC50) of 3.20

`COc1cccc([C@@]2(O)CCCC[C@@H]2CN2CC[C@@H](NC(=O)c3cc(Cl)c(N)cc3OC)[C@@H](OC)C2)c1` yielded log10(IC50) of 3.45

----------
test.system: 5-hydroxytryptamine receptor 3A (Homo sapiens, UniProt P46098)
method.notes: Antagonist activity at human recombinant 5-HT3 receptor expressed in HEK293 cells
Type: functional, cell-based
experimental.endpoint: EC50 (nM)
All answers are understood in nM, so give the number only.

Form field, EC50 with 5-hydroxytryptamine receptor 3A (Homo sapiens, UniProt P46098), item COc1cc(N)c(Cl)cc1C(=O)NC1CCNCC1OC (racemic) [NORCISAPRIDE] : 2300

----------
Catalogue of IC50 readings, one per entry.
test.system: Mu-type opioid receptor (Homo sapiens)
Sequence (P35372 whole entry): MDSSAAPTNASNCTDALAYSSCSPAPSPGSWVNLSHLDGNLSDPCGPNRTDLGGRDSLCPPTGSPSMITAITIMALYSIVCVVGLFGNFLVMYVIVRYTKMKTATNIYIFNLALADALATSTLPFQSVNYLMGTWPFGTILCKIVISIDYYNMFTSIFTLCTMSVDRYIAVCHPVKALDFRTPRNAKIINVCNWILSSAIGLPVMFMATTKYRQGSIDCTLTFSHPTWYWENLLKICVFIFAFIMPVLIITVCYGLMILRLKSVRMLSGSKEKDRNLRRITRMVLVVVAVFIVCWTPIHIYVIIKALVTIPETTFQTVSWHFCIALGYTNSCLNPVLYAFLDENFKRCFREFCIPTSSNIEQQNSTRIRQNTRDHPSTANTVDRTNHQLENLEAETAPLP

COc1cccc([C@]2(O)CCCC[C@H]2CN2CC[C@@H](NC(=O)c3cc(Cl)c(N)cc3OC)[C@@H](OC)C2)c1    > 10 µM
COc1cc(N)c(Cl)cc1C(=O)N[C@@H]1CCN(C[C@H]2CCCC[C@]2(O)c2cccc(O)c2)C[C@@H]1OC    > 10 µM

Form field, IC50 with Mu-type opioid receptor (Homo sapiens), item `COc1cc(N)c(Cl)cc1C(=O)N[C@H]1CCN(C[C@@H]2CCCC[C@@]2(O)c2cccc(O)c2)C[C@H]1OC` : 0.41 µM

Form field, IC50 with Mu-type opioid receptor (Homo sapiens), item `COc1cccc([C@@]2(O)CCCC[C@@H]2CN2CC[C@H](NC(=O)c3cc(Cl)c(N)cc3OC)[C@H](OC)C2)c1` : > 10 µM

----------
test.system: 5-hydroxytryptamine receptor 4 (Homo sapiens)
method.notes: Displacement of [3H]GR-113808 from human recombinant 5-HT4 receptor
experimental.endpoint: IC50 (µM)
All answers are understood in µM, so give the number only.

Check out these entries, answers already filled in.
COc1cc(N)c(Cl)cc1C(=O)NC1CCNCC1OC (racemic) [NORCISAPRIDE]    0.019
COc1cccc([C@@]2(O)CCCC[C@@H]2CN(C)CCNC(=O)c2cc(Cl)c(N)cc2OC)c1    5

`COc1cccc([C@@]2(O)CCCC[C@@H]2CN2CC[C@H](NC(=O)c3cc(Cl)c(N)cc3OC)[C@H](OC)C2)c1` yielded IC50 of 6.1

`COc1cccc([C@]2(O)CCCC[C@H]2CN2CC[C@H](NC(=O)c3cc(Cl)c(N)cc3OC)[C@H](OC)C2)c1` yielded IC50 of 4.6

`COc1cc(N)c(Cl)cc1C(=O)N[C@H]1CCN(C[C@@H]2CCCC[C@@]2(O)c2cccc(O)c2)C[C@H]1OC` yielded IC50 of 9.9

`COc1cccc([C@]2(O)CCCC[C@H]2CN2CC[C@@H](NC(=O)c3cc(Cl)c(N)cc3OC)[C@@H](OC)C2)c1` yielded IC50 of 3.9

----------
test.system: 5-hydroxytryptamine receptor 3A (Homo sapiens)
method.notes: Displacement of [3H]granisetron from human recombinant 5-HT3 receptor expressed in HEK293 cells
experimental.endpoint: IC50 (nM)
All answers are understood in nM, so give the number only.

COc1cc(N)c(Cl)cc1C(=O)N[C@@H]1CCN(C[C@@H]2CCCC[C@@]2(O)c2cccc(O)c2)C[C@@H]1OC    1400

Form field, IC50 with 5-hydroxytryptamine receptor 3A (Homo sapiens), item `COc1cc(N)c(Cl)cc1C(=O)NCCN(C)C[C@H]1CCCC[C@]1(O)c1cccc(O)c1` : 3100

Form field, IC50 with 5-hydroxytryptamine receptor 3A (Homo sapiens), item `COc1cccc([C@]2(O)CCCC[C@H]2CN2CC[C@H](NC(=O)c3cc(Cl)c(N)cc3OC)[C@H](OC)C2)c1` : 1700

Form field, IC50 with 5-hydroxytryptamine receptor 3A (Homo sapiens), item COc1cc(N)c(Cl)cc1C(=O)NCCN(C)CC1CCCCC1(O)c1cccc(O)c1 (racemic) : 2800

----------
test.system: 5-hydroxytryptamine receptor 4 (Homo sapiens)
method.notes: Agonist activity at human recombinant 5-HT4 receptor
Type: functional
experimental.endpoint: pEC50
Lab note: report pEC50 as minus log10 of the concentration in molar units, number only.

Check out these entries, answers already filled in.
COc1cc(N)c(Cl)cc1C(=O)NC1CCNCC1OC (racemic) [NORCISAPRIDE]    6.54
COc1cccc([C@]2(O)CCCC[C@H]2CN2CC[C@@H](NC(=O)c3cc(Cl)c(N)cc3OC)[C@@H](OC)C2)c1    6.92

Okay, next one:
Form field, pEC50 with 5-hydroxytryptamine receptor 4 (Homo sapiens), item `COc1cc(N)c(Cl)cc1C(=O)N[C@H]1CCN(C[C@@H]2CCCC[C@@]2(O)c2cccc(O)c2)C[C@H]1OC` : 7.05

----------
test.system: 5-hydroxytryptamine receptor 4 (Homo sapiens, UniProt Q13639)
Sequence (Q13639 whole entry): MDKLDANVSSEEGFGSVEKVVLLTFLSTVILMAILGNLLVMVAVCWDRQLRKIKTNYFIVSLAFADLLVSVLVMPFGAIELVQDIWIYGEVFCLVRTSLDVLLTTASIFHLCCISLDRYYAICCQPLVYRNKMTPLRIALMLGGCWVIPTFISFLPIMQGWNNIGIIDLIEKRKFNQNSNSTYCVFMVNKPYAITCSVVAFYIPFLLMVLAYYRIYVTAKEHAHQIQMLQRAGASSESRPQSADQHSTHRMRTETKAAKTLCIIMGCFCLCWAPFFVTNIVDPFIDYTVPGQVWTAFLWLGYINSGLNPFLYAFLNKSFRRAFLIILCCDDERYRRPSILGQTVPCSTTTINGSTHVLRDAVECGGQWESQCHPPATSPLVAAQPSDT
method.notes: Displacement of [3H]GR-113808 from human recombinant 5-HT4 receptor
pIC50: −log10 of the molar value.
experimental.endpoint: pIC50

Check out these entries, answers already filled in.
COc1cc(N)c(Cl)cc1C(=O)N[C@@H]1CCN(C[C@@H]2CCCC[C@@]2(O)c2cccc(O)c2)C[C@@H]1OC    < 5.00
COc1cc(N)c(Cl)cc1C(=O)NCCN(C)C[C@@H]1CCCC[C@@]1(O)c1cccc(O)c1    < 5.00
COc1cc(N)c(Cl)cc1C(=O)N[C@@H]1CCN(C[C@H]2CCCC[C@]2(O)c2cccc(O)c2)C[C@@H]1OC    < 5.00
COc1cccc([C@@]2(O)CCCC[C@@H]2CN2CC[C@@H](NC(=O)c3cc(Cl)c(N)cc3OC)[C@@H](OC)C2)c1    < 5.00
COc1cc(N)c(Cl)cc1C(=O)NCCN(C)C[C@H]1CCCC[C@]1(O)c1cccc(O)c1    < 5.00

COc1cc(N)c(Cl)cc1C(=O)NCCN(C)CC1CCCCC1(O)c1cccc(O)c1 (racemic) yielded pIC50 of < 5.00

`COc1cccc([C@]2(O)CCCC[C@H]2CN(C)CCNC(=O)c2cc(Cl)c(N)cc2OC)c1` yielded pIC50 of < 5.00

`COc1cc(N)c(Cl)cc1C(=O)N[C@H]1CCN(C[C@H]2CCCC[C@]2(O)c2cccc(O)c2)C[C@H]1OC` yielded pIC50 of < 5.00
